B1: minF1; a variant is named by its letters at N, in order (parent)
chain: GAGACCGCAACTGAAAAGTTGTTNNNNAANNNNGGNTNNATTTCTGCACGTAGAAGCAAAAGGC

variants of: B1; experiment: fraction ligated after 30 min (ligated reads / total reads); higher = more ligase activity; details: with F1*subA RNA substrate (template-directed ligation), 42 °C
Each entry gets no if its fraction ligated stays under 0.003, and yes if its fraction ligated is 0.003 or above.

Solved entries:
GAGACCGCAACTGAAAAGTTGTTATAGAATGGGGGTTGAATTTCTGCACGTAGAAGCAAAAGGC: yes
GAGACCGCAACTGAAAAGTTGTTTCAGAAAGATGGTTGAATTTCTGCACGTAGAAGCAAAAGGC: yes
GAGACCGCAACTGAAAAGTTGTTATCGAAAGATGGTTGAATTTCTGCACGTAGAAGCAAAAGGC: yes
GAGACCGCAACTGAAAAGTTGTATCGAATGGATGGGTTAATTTCTGCACGTAGAAGCAAAAGGC: yes
GAGACCGCAACTGAAAAGTTGTTACGAATGGATGGTTGAATTTCTGCACGTAGAAGCAAAAGGC: yes
GAGACCGCAACTGAAAAGTTGTTTCAGAGGATGGGTTGAATTTCTGCACGTAGAAGCAAAAGGC: no
GAGACCGCAACTGAAAAGTTGTTATCAGATGATGGTTGAATTTCTGCACGTAGAAGCAAAAGGC: no
GAGACCGCAACTGAAAAGTTGTTATCAGTGGATGGGTTAATTTCTGCACGTAGAAGCAAAAGGC: no
GAGACCGCAACTGAAAAGTTGTATCAGAAAGAGGGTTGAATTTCTGCACGTAGAAGCAAAAGGC: no
GAGACCGCAACTGAAAAGTTGTTATCAGAATGGAGGTTAATTTCTGCACGTAGAAGCAAAAGGC: no

From here, focus on the item given below.
Tell me whether fraction ligated is at least 0.003 here: GAGACCGCAACTGAAAAGTTGTATCAGAAATATGGGTTGATTTCTGCACGTAGAAGCAAAAGGC
yes
